Numbers sourced from PubChem BioAssay (NCATS).

test: Primary qHTS for inhibitors of nuclear receptor binding SET domain protein 2 (NSD2) in an isogenic RCH-ACV NSD2 p.E1099K mutant (9B) (AID 1645876); conditions: RCH-ACV (leukaemia line) NSD2 E1099K (9B) viability, CellTiter-Glo, 72 h; series mostly up to 44.9 µM; further: nearly all actives have a fitted effect of over 70% in size
Inconclusive results are not listed. Calls of active or inactive are those of the source. The call rests on the fitted dose curve; in most records, active means well fitted inhibition curve with a large enough effect; inconclusive means small, poorly fitted or top-dose-only effect; inactive means flat fitted curve, though single readings scatter.
Result category, one only: active, inactive

Example entries begin here.
OC[C@H]1O[C@@H](S[C@@H]2O[C@H](CO)[C@H](O)[C@H](n3cc(-c4cccc(F)c4)nn3)[C@H]2O)[C@H](O)[C@@H](n2cc(-c3cccc(F)c3)nn2)[C@H]1O
inactive
COC(=O)/C=C/C(=O)OC
inactive
CC1=C2[N-][C@H]([C@H](CC(N)=O)[C@@]2(C)CCC(=O)NC[C@@H](C)OP(=O)([O-])O[C@H]2[C@@H](O)[C@@H](n3cnc4cc(C)c(C)cc43)O[C@@H]2CO)[C@]2(C)N=C(C(C)=C3N=C(C=C4N=C1[C@@H](CCC(N)=O)C4(C)C)[C@@H](CCC(N)=O)[C@]3(C)CC(N)=O)[C@@H](CCC(N)=O)[C@]2(C)CC(N)=O.O.[Co+2]
inactive

Input line: Recorded call for COc1ccc(-n2cnc3cc(C(=O)N4CCCCC4)ccc32)cc1 ?
Output line: inactive

Input line: Dear colleague, could you share the recorded outcome for Cc1c(CN2CCN(C(=O)[C@H](C)O)CC2)sc2c(N3CCOCC3)nc(-c3cnc(N)nc3)nc12 when you have a moment?
Output line: active

Input line: Record lookup: outcome of this test for N#Cc1ccc(N(Cc2ccc(Br)cc2)n2cnnc2)cc1 ?
Output line: inactive

Input line: Please share the test call associated with CN1CCN(C(=O)c2ccc(-c3ccc4c(C=O)c(O)ccc4c3)s2)CC1 .
Output line: inactive

Input line: Write down the call the test reported for this compound. Item: Cc1nc(NC(=O)N2CCC[C@H]2C(N)=O)sc1-c1csc(C(C)(C)C)n1
Output line: active

Input line: Recorded test outcome, item C=CCN(/C=C1\C(=O)O[C@@H](COC)[C@]2(C)C1=C(O)C(=O)C1=C2[C@@H](OC(C)=O)C[C@]2(C)C(=O)CC[C@H]12)CC=C
Output line: active
